- REPORTED CONDITIONS: buffer; pH 7.4; 200.0 µM
Consider the following compounds; for each one, report its solubility kinetic.
# unit: µg/mL | format: bare number

Input line: Could you tell me which solubility kinetic is on file for CCc1ccc(Nc2nc(C)cc(C)n2)cc1.Cl ?
Output line: 18.4

Input line: Check COc1ccc(S(=O)(=O)NCCCN2CCCC2=O)cc1OC too.
Output line: 47.4

Input line: Check CNC(=O)COc1ccc(S(=O)(=O)N2CCCC2)cc1 too.
Output line: 40.9

Input line: Check O=C(c1cnc2sccn2c1=O)N1CCN(c2ccccc2Cl)CC1 too.
Output line: 54.4

Input line: Check CCOc1ccccc1NC(=O)N1CCc2ccccc2C1 too.
Output line: 33.1

Input line: Check COc1ccc(S(=O)(=O)N2CCCCC2)cc1NS(=O)(=O)c1ccccc1 too.
Output line: 4.3

Input line: Check Cn1c(=O)c([N+](=O)[O-])c(N2CCSCC2)c2ccccc21 too.
Output line: 2.2

Input line: Check O=S(=O)(Nc1ccc(N2CCCCC2)cc1)c1ccccc1F too.
Output line: 12

Input line: Check NC(=NC(=O)c1ccc(OCC(F)(F)F)nc1)c1ccc(Cl)cc1 too.
Output line: 2

Input line: Check CN(c1ccccc1)S(=O)(=O)c1ccc(Cl)nc1 too.
Output line: 40.1

Input line: Check CCN(C(=O)COC(=O)c1[nH]c(=O)[nH]c(=O)c1N)c1ccccc1 too.
Output line: 39.3

Input line: Check Oc1c(Cl)cc(Cl)cc1CNc1nc2ccccc2[nH]1 too.
Output line: 3.5

Input line: Check CC(C)n1cc(/C=C2/NC(=O)NC2=O)c2ccccc21 too.
Output line: 0.7

Input line: Check O/N=C1\CCSc2ccc(F)cc21 too.
Output line: 23.4

Input line: Check CCN(CC)S(=O)(=O)c1ccc(Oc2ccccc2OC)cc1 too.
Output line: 10

Input line: Check O=C(Nc1ccc(C(=O)N2CCCCC2)cc1)c1cccs1 too.
Output line: 35

Input line: Check Cl.OC(CN1CCOCC1)c1csc2ccccc12 (stereo not given) too.
Output line: 43.6

###

- REPORTED CONDITIONS: buffer; pH 7.4; 200.0 µM
OBSERVED PROPERTY: solubility kinetic (µg/mL)
# unit: µg/mL | format: bare number

Input line: Could you tell me which solubility kinetic is on file for COc1ccc(CN2CCN(C(=O)C3CCN(C(=O)Nc4ccccc4)CC3)CC2)cc1OC ?
Output line: 60.6

Input line: Check Cc1ccc(C)c(NC(=O)c2cnccn2)c1 too.
Output line: 23.9

Input line: Check Cc1ccc(S(=O)(=O)NCC(=O)OCC(=O)N2C(C)CCCC2C)cc1 (centres undefined) too.
Output line: 53.9

Input line: Check Cc1ccc(C2=NC3(CCCC3)NC2=S)cc1 too.
Output line: 2.2

Input line: Check Cc1ccc(NC(=O)CCN2CCC(Cc3ccccc3)CC2)cc1 too.
Output line: 22.6

Input line: Check O=C(Cn1c(=O)oc2ccccc21)Nc1ccccc1Cl too.
Output line: 6.8

Input line: Check c1ccc(-c2noc(C3CCC3)n2)nc1 too.
Output line: 20.6

Input line: Check Cc1cc(C(=O)CN2C(=O)C(=O)N(CCC3=CCCCC3)C2=O)c(C)n1C too.
Output line: 11.5

Input line: Check O=C(C1COc2ccccc2O1)N1CCN(c2ccc(C(F)(F)F)cn2)CC1 (centres undefined) too.
Output line: 16.3

Input line: Check Cc1ccc(C(=O)CCC(=O)N2CCC(C(N)=O)CC2)cc1 too.
Output line: 43.5

Input line: Check CC1CC1C(=O)Nc1cc(C(F)(F)F)ccc1N1CCOCC1 (centres undefined) too.
Output line: 40.9

Input line: Check COC(=O)c1cc(OC)c(OC)cc1NC(=O)Nc1ccccc1F too.
Output line: 2.4

Input line: Check CCC(=O)c1ccc(OCC(=O)OCC(=O)NC2CCCCCCC2)cc1 too.
Output line: 48

Input line: Check O=C(Nc1ccccc1N1CCOCC1)c1ccco1 too.
Output line: 35

Input line: Check Cc1sc(NC(=O)/C=C/c2ccco2)c(C(=O)O)c1C too.
Output line: 40.9

Input line: Check CCc1nonc1NC(=O)c1oc2ccccc2c1C too.
Output line: 3.1

Input line: Check CCOCCOC(=O)NCCCCCCNC(=O)OCCOCC too.
Output line: 38.2

Input line: Check Cc1cc(-c2ccc([N+](=O)[O-])cc2)nc2ccccc12.Cl too.
Output line: 1

Input line: Check CCOc1ccc(C(=O)CCN2CCOCC2)cc1.Cl too.
Output line: 44.9

Input line: Check CCOc1ccc(C(=O)Nc2ccc(CN3CCOCC3)cc2)cc1Cl too.
Output line: 27.5

Input line: Check COc1ccc(C(O)(CCN2CCOCC2)c2ccccc2)cc1 (centres undefined) too.
Output line: 41.1

Input line: Check Cc1cc(C)cc(NC(=S)N(C)C)c1 too.
Output line: 30.7

Input line: Check Cc1cccnc1NC(=S)Nc1ccc(Cl)c(Cl)c1 too.
Output line: 3.7

Input line: Check Cc1ccc(C(=O)OCC(=O)NC(=O)c2cccn2C)cc1[N+](=O)[O-] too.
Output line: 1.3

Input line: Check CN(C)c1ncc([N+](=O)[O-])cc1C(F)(F)F too.
Output line: 5.2

Input line: Check COc1ccc(NC(=O)CC(=O)Nc2ccc(OC)cc2)cc1 too.
Output line: 1.2

Input line: Check Cc1ncc([N+](=O)[O-])n1CC(=O)Nc1ccc(F)c(F)c1 too.
Output line: 6.4

Input line: Check C[C@H](NC(N)=O)C(=O)Nc1ccc2c(c1)OCO2 too.
Output line: 32.9

Input line: Check O=C1NC2(CCCCC2)C(=O)N1CC(=O)N1CCc2ccccc21 too.
Output line: 10.6
